Data provenance: patent US20250296992A1

Listing of entries alongside the reported pKd.
- measured.on: T1, cynomolgus monkey SLITRK6 extracellular domain linked to his tag (cynomolgus monkey, UniProt G7PVK4 27-608)
- T1 construct: extracellular domain; also called cynoSLITRK6; Cyno SLITRK6; not shown: his tag
- assay.notes: BLI; antigen ECD-his on anti-his tips, antibody as analyte; 1:1 fit;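 note: antibody at several concentrations, 180 s association then 300 s dissociation in Tris buffer at pH 6 or 7.5, rate constants from global fitting, KD computed as koff/kon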
When answering, recall that pKd equals minus log10 of the concentration in mol/L, and write that number alone.

Here's what some known entries look like.
hu14G1-03 (antibody, V domains shown) VH: EVQLVESGGGLVQPGGSLRLSCAASGFTFSDYGMHWVRQAPGKGLEWVSYISPGSSTIYYADTMKGRFTISRDNAKNSLYLQMNSLRAEDTAVYYCARAYGGSYWYFAVWGQGTLVTVSS VL: DIQMTQSPSSLSASVGDRVTITCRASGNIHSYLAWYQQKPGKSPQLLVYNAKTLADGVPSRFSGSGSGTDYTLTISSLQPEDFGTYYCQHFWSTPYTFGGGTKLEIK; 9.02
Sirtratumab (antibody, V domains shown, Prior-art benchmark antibody; also called Sirtratuzumab) VH: QVQLVESGGGVVQPGRSLRLSCAASGFTFSSYGMHWVRQAPGKGLEWVAVIWYDGSNQYYADSVKGRFTISRDNSKNTLFLQMHSLRAEDTAVYYCARGLTSGRYGMDWGQGTTVTVSS VL: DIVMTQSPLSLPVTPGEPASISCRSSQSLLLSHGFNYLDWYLQKPGQSPQLLIYLGSSRASGVPDRFSGSGSGTDFTLKISRVEAEDVGLYYCMQPLQIPWTFGQGTKVEIK; 8.22

Now for a further binder.
Report pKd for phA290 (antibody, V domains shown, From phage display, then full-length construction; Only the variable regions are tied to the name) VH: QVQLVQSGAEVKKPGASVKVSCKASGYTFTSYYMHWVRQAPGQGLEWMGIINPSGGSTSYAQKFQGRVTMTRDTSTSTVYMELSSLRSEDTAVYYCARGFTRYFDYWGQGTLVTVSA VL: EIVMTQSPGTLSLSPGERATLSCRASQSVSKYLAWYQQRPGQAPRLLIYDASNRATGIPARFSGSGSGTDFTLTVSSLEPEDFAVYYCQQRYNWPLTFGGGTTVEIK please.
8.50
